Tested on: Nicotinate-nucleotide adenylyltransferase NadD (Staphylococcus aureus N315)
assay-procedure: S. aureus NadD enzyme activity blockers – biochemical, colorimetric, uHTS, primary screen (AID 602399)
stated-conditions: purified NadD enzyme, colorimetric absorbance read-out; at 20 µM; stronger effect = higher value
Hit rate of the full screen: of about 360,000 compounds, about 2,800 (0.78%) were called active. The list comes from a sample in which actives are over-represented; it also holds close analogues and randomly drawn compounds.
metric: inhibition (%)
Please give a number only; it is taken to be in %.

(Q) Endpoint output: inhibition of O=C(Cn1c(=O)n(CC2CS2)c2ccccc21)N1CCCCC1 (stereo unspecified) . Value?
(A) -1.82

(Q) Also need CCCCCn1c(=O)c(C(=O)Nc2c(C)n(C)n(-c3ccccc3)c2=O)c(O)c2ccccc21 , thanks.
(A) 29.9

(Q) Now consider CCCCCn1c(=O)c(C(=O)NCc2ccccc2)c(O)c2ccccc21 .
(A) 1.88

(Q) Same thing, different compound: Clc1ccc2nc3c(c(-c4ccccc4)c2c1)CNCC3
(A) -4.51

(Q) Also O=c1[nH]c(CN2CC=C(c3ccccc3)CC2)nc2scc(-c3cccs3)c12 , if possible.
(A) 29.6

(Q) What do you get for CCCCn1c(=O)c(C(=O)Nc2ccccc2Cl)c(O)c2ccccc21 ?
(A) -7.15
